For each record, write down the corresponding log10(MIC).
system: Candida tropicalis; assay: Antifungal activity against Candida tropicalis Berkout KCCM 50662 after 1 day by 2-fold broth dilution method; format: functional; details: KCCM 50662, 24 h
Would you kindly interpret these values as log10 of MIC expressed in µg/mL?

Give the measured log10(MIC) for Nc1nc(=O)[nH]cc1F [FLUCYTOSINE]
1.10

Give the measured log10(MIC) for COC(=O)c1cn(-c2ccc(I)cc2)c2c1C(=O)C(C)=C(C)C2=O
1.10

Give the measured log10(MIC) for COC(=O)c1cn(-c2ccc(Br)cc2)c2c1C(=O)C(C)=C(C)C2=O
0.80

Give the measured log10(MIC) for COC(=O)c1cn(-c2ccccc2)c2c1C(=O)C(C)=C(C)C2=O
1.10

Give the measured log10(MIC) for O=C1C(Sc2ccc(F)cc2)=C(Sc2ccc(F)cc2)C(=O)c2[nH]ccc21
1.40

Give the measured log10(MIC) for COC(=O)c1cn(-c2ccc(Cl)cc2)c2c1C(=O)C(C)=C(C)C2=O
1.10

Give the measured log10(MIC) for O=C1C(Sc2cccc(Cl)c2)=C(Sc2cccc(Cl)c2)C(=O)c2[nH]ccc21
0.20

Give the measured log10(MIC) for CCOC(=O)c1cn(C)c2c1C(=O)C(C)=C(C)C2=O
1.40

Give the measured log10(MIC) for O=C1C(Sc2ccc(O)cc2)=C(Sc2ccc(O)cc2)C(=O)c2[nH]ccc21
1.70

Give the measured log10(MIC) for COC(=O)c1cn(-c2ccc(OC)cc2)c2c1C(=O)C(C)=C(C)C2=O
1.70

Give the measured log10(MIC) for COC(=O)c1cn(-c2ccc(C(C)C)cc2)c2c1C(=O)C(C)=C(C)C2=O
1.10

Give the measured log10(MIC) for CCc1ccc(-n2cc(C(=O)OC)c3c2C(=O)C(C)=C(C)C3=O)cc1
1.70

====

system: Pichia kudriavzevii; assay: Antifungal activity against Candida krusei Berkout KCCM 11655 after 1 day by 2-fold broth dilution method; format: functional; conditions: KCCM 11655, 24 h
propertyMeasured: MIC (µg/mL)
Form entry: value (µg/mL) — number only.

Give the measured MIC for COC(=O)c1cn(-c2ccc(OC(F)(F)F)cc2)c2c1C(=O)C(C)=C(C)C2=O
6.3

Give the measured MIC for COC(=O)C(C#N)C1=C(Cl)C(=O)C(C)=C(C)C1=O (centres undefined)
100

Give the measured MIC for CCOC(=O)c1cn(C)c2c1C(=O)C(C)=C(C)C2=O
50

====

For each record, write down the corresponding log10 MIC.
tested on: Pichia kudriavzevii; experiment: Antifungal activity against Candida krusei Berkout KCCM 11655 after 1 day by 2-fold broth dilution method; type: functional; settings: KCCM 11655, 24 h
Would you kindly interpret these values as log10 of MIC expressed in µg/mL?

Give the measured log10 MIC for COC(=O)c1cn(-c2ccc(C(C)C)cc2)c2c1C(=O)C(C)=C(C)C2=O
2.00

Give the measured log10 MIC for O=C1C(Sc2ccc(F)c(F)c2)=C(Sc2ccc(F)c(F)c2)C(=O)c2[nH]ccc21
1.10

Give the measured log10 MIC for COC(=O)c1cn(-c2ccc(F)cc2)c2c1C(=O)C(C)=C(C)C2=O
0.51

Give the measured log10 MIC for COC(=O)c1cn(-c2ccc(I)cc2)c2c1C(=O)C(C)=C(C)C2=O
1.70

Give the measured log10 MIC for O=C1C(Sc2ccc(F)cc2)=C(Sc2ccc(F)cc2)C(=O)c2[nH]ccc21
0.51

Give the measured log10 MIC for COC(=O)c1cn(-c2ccc(OC)cc2)c2c1C(=O)C(C)=C(C)C2=O
0.51

Give the measured log10 MIC for COC(=O)c1cn(-c2ccccc2)c2c1C(=O)C(C)=C(C)C2=O
0.20

Give the measured log10 MIC for COC(=O)c1cn(-c2ccc(Cl)cc2)c2c1C(=O)C(C)=C(C)C2=O
-0.10

Give the measured log10 MIC for COC(=O)c1cn(-c2ccc(Br)cc2)c2c1C(=O)C(C)=C(C)C2=O
1.70

Give the measured log10 MIC for CCOC(=O)C(C#N)C1=C(Cl)C(=O)C(C)=C(C)C1=O (stereo not given)
2.00
